B1: HSP90AB1 (parent)
chain: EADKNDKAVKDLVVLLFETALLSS

Variants of: B1
Test: protein stability index of a GFP-peptide fusion (GPS, HEK-293T) (PSI 1-6); higher = more stable;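 also: lentivirally expressed fusions sorted by FACS into six bins by GFP to DsRed ratio, PSI derived from sequencing read proportions per bin multiplied by bin number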
Settings: c terminus: a fixed tail appended
Values of protein stability index greater than or equal to 2 map to rule met; values below map to rule not met.

Reference set, count: 3
{"mutant": "L12P", "classification": "rule met"}
{"mutant": "K4A", "classification": "rule not met"}
{"mutant": "F17R", "classification": "rule met"}

We next turn to a different variant, shown below.
query: Quick check: does `N5H` have protein stability index greater than or equal to 2?
result: rule not met
